- Tested on: SW480
- assay-protocol: Hetero salts vs homo salts, cell viability and cytotoxicity, SW480
- Assay type: cell-based
observation-type: IC50 (µM)
Numbers only; they are read as µM.

In: Recorded IC50 for "CC(O)C(=O)[O-].O=C1O[C@H]([C@@H](O)CO)C([O-])=C1O.[Ca+2]" , please?
Out: 2600

* * *

- Tested on: lung cancer cell line (A-549)
- assay-protocol: MTT assay, 48 h, A549
- details: Homo sapiens, A549, 48 h, read-out: IC50 mM of A549 Lung cancer
observation-type: IC50

>  <compound>
O=C(O)C(Cl)Cl [Dichloroacetic acid, dichloroacetic acid, reference compound]

>  <target-system>
lung cancer cell line (A-549)

>  <observation-type>
IC50

>  <observed-value>
> 5 mM

$$$$

Pending compound:
In: Which value of IC50 has been reported for O=C1O[C@H]([C@@H](O)CO)C(O)=C1O [ascorbic acid, reference compound] in the records?
Out: > 5 mM
